tested on: KARN cells (Jurkat 2C4); test: cells; assay type: cell-based; settings: Homo sapiens, Jurkat, read-out: Karn EC50 (nM) 5% NHS, 5% normal human serum; luciferase induction, 100% = 2 μM SAHA
PARAMETER: EC50 (nM)
Please respond with the number in nM and leave the unit unwritten.

Worked examples, 4 molecules total:
>>> observed_value("CCC(=O)CCCCC[C@H](NC(=O)C1=NOC2(CCN(C)CC2)C1)c1nnc(-c2cc3ccccc3nc2OC)o1")
1430
>>> observed_value("CCC(=O)CCCCC[C@H](NC(=O)C1CC2(C1)CN(CC)C2)c1ncc(-c2cc3ccccc3nc2OC)[nH]1")
860
>>> observed_value("CCOc1ncc(-c2cnc([C@H](CCCCCC(=O)CC)NC(=O)[C@H]3CC34CCN(C)CC4)[nH]2)cn1")
13800
>>> observed_value("CCC(=O)CCCCC[C@H](NC(=O)C1=NOC2(CCN(C)CC2)C1)c1ncc(-c2cc3ccc(N(C)C)nc3cc2OC)o1")
327

Now look at this entry.
QUERY: Quick check: EC50 of CCC(=O)CCCCC[C@H](NC(=O)C1CC2(C1)CN(C)C2)c1ncc(-c2cc3ccccc3nc2OC)[nH]1 ?
RESULT: 841
